Hello, the source for this data is the EternaBench riboswitch data, in case you need it.

Test system: MS2 coat protein
Assay: apparent Kd, MS2 coat protein; higher = weaker binding; RNA-MaP array; FMN 200 µM where present
Measurement Parameters: designed as: OFF switch for flavin mononucleotide; no ligand
Quick rule: apparent Kd of at least 30 nM means Yes, below that means No.

Example results:
GAUCUGGCAGGAUAUACAUGAGGAUCACCCAUGUGCGAGCUAGCGAAAGCUAGCUCAGGUAGAAGGGUCAGAUC: No
AGUACUACAGGAUAUACGAGGGAGGUCCACGUGACCCUUAUACAUGAGGAUCACCCAUGUAGAAGGGUAGUACA: Yes
CCACAUGAGGAUCACCCAUGUGACUUCUGUGGCCCGGUGUUGCAGGAUAUCGCAAGGUUAGUUGACGAGAAGGGCGACGGUGGU: Yes
UUUGAUAGCACAGGAUAUUGUCAUUUGAGUUGUCAAGAAGGGUGUACAUGAGGAUCACCCAUGUAAUGGUUGCCUCGCUGACUU: Yes
GGAUUUUACUAGUUUUCUAUACAUGAGGAUCACCCAUGUUUUUAGGAUAUCAGCGUGAAACACGCUGAGAAGGAAGAACAAUCC: No

Query block: Record GGAUAGGACAGAGGAUAUACGUGCUAGAGAUACUAGCAAAACUUCCUCACAUGAGGAUCACCCAUGUAGAAGGCUGUCCUAUCG ; criterion: apparent Kd no lower than 30 nM. Met?
Result block: No

Query block: Record UUACUGAUAUAGAAGGGUAUAUGGGAAUUACAUGAGGAUCACCCAUGUUUUAUAGGAUAUGUAUAUAGUAUUUAAUCAAGUUUA ; criterion: apparent Kd no lower than 30 nM. Met?
Result block: Yes

###

Tested on: MS2 coat protein
Assay: apparent Kd, MS2 coat protein; higher = weaker binding; RNA-MaP array; FMN 200 µM where present
Measurement Parameters: designed as: OFF switch for flavin mononucleotide; no ligand
Listed sequences paired with reported apparent Kd
# output: bare number, implied unit nM

Worked set:
UAGUAUAAGGGCAUUAAACAUGAGGAUCACCCAUGUACGAUAGAGGAUAUGCAUUUCAGUUUAGAGUAGAAGGUUAGAGAAUUU: 42.1
AAUCAGUCAGGAUAUCGUUAAUUUAAUUGUUUGUUUUAGUUCGAGAAGGGACAUGAGGAUCACCCAUGUACUCA: 23.1

Query block: Give MS2 coat protein apparent Kd for CUGGAUCACGCAGGAUAUUACAUGAGGAUCACCCAUGUCAGGACUGCAAUAUCGUCUCCUCGGUGUGAGAAGGGCGGAAUCAUU
Result block: 15

Query block: Give MS2 coat protein apparent Kd for GCUGGACAUGAGGAUCACCCAUGUGAGGAUAUCGGCUGGUACGUGUUGGCUGGCAUCUCGAGAAGGCACAUAGU
Result block: 32.8

###

Tested on: MS2 coat protein
Assay: apparent Kd, MS2 coat protein; higher = weaker binding; RNA-MaP array; FMN 200 µM where present
Measurement Parameters: designed as: OFF switch for flavin mononucleotide; no ligand
Listed sequences paired with reported apparent Kd

Worked set:
CCUAAACAUGAGGAUCACCCAUGUGAGGAUAUGAUGCAGCAGUGGUCUACGCUGUGCAUCAGAAGGUACAUGGU: 80.8 nM
AAGAUGUGAGGAUAUCACGAGAGCGUCAAACGGACACUCUCUGAGAAGGCACAUGAGGAUCACCCAUGUCCAAA: 57.2 nM
UUAAUGUGAGGAUAUCAGGUGUGCUAGAGAACUGGUACAUCUGAGAAGGCACAUGAGGAUCACCCAUGUUCUUC: 42.8 nM
UAUGUCUUUGUGAGGAUAUACUUUGUUUGGUCGUAGUAGAAGGCACAUGAGGAUCACCCAUGUAGAUUUUUGGU: 23.1 nM
UUUUAGUGAGGAUAUACAUUUUUUUAAUUAUUUAUAAUAUUACAUGAGGAUCACCCAUGUAGAAGGCACAUUUU: 24.3 nM
UGAGCCUCGUGAGGAUAUACAUGAGGAUCACCCAUGUAAUAAAGUGAACGGAGGUAACUCCGAAUGUAGAAGGCACGAGGCUCA: 38 nM
ACGACGAAAGUCGAACGAUGAUCGAGAAGGACAUGAGGAUCACCCAUGUCUGCUGUAACAGCCAUGUAGGAUAUCGAUCAUCGA: 3.62 nM
UACUUGUCAGGAUAUCUUACAUUAACAUCGUAGUUACCGUUGGAGAAGGGACAUGAGGAUCACCCAUGUUUGGC: 32 nM
GUCAGCUCGUGAGGAUAUACAUGUGCUGGAAACAGCACUAAUUAAUUCACAUGAGGAUCACCCAUGUAGAAGGCACGAGCUGAU: 16.2 nM
CCCUCACAUGAGGAUCACCCAUGUCAGGAUAUCCAGCCCUACUAUAAAGCGUCUGGCGGGAGAAGGGACAGGAU: 20.9 nM

--- query ---
Query block: Data request, read-out apparent Kd, for GUCAAGCUAGGAUAUACAUGAGGAUCACCCAUGUUAUCCUCGUGGGCAGUUUCUUCAUGUAGAAGGAGCAAAGG
Result block: 38 nM
